FYI, the data here is from paper PMC7504417.

Would you kindly list Kd for each of these molecules?
- System under test: beta 2 adrenergic receptor peptide B2AR 105–108 WCEF (Homo sapiens, UniProt P07550)
- Construct: B2AR 105–108 WCEF; purchased RS Synthesis (Louisville, KY, USA); host or cells: chemical synthesis
- Assay procedure: biochemical
- Assay type: binding
Please respond with the number in µM and leave the unit unwritten.

Asked: Complete the entry with Kd for NCCc1c[nH]c2ccc(O)cc12 [Serotonin, serotonin]
Given back: 45

Asked: State its Kd for this molecule: CSCC[C@H](NC(=O)[C@H](Cc1ccccc1)NC(=O)CNC(=O)CNC(=O)[C@@H](N)Cc1ccc(O)cc1)C(=O)O [Met-Enkephalin, methionine-enkephalin]
Given back: 30

Asked: Query Kd for C=CCN1CC[C@]23c4c5ccc(O)c4O[C@H]2C(=O)CC[C@@]3(O)[C@H]1C5 [Naloxone, naloxone]
Given back: 30

Asked: Return the recorded Kd value; entry: CCC(=O)C(CC(C)N(C)C)(c1ccccc1)c1ccccc1 (stereo not shown) [Methadone, methadone]
Given back: 30

---

Assign Kd to each entry below.
- System under test: mu opioid receptor peptide Mu OPR 121–131 (Homo sapiens)
- Construct: Mu OPR 121–131; purchased RS Synthesis (Louisville, KY, USA); host or cells: chemical synthesis
- Assay procedure: biochemical
- Format: binding

Asked: Quote Kd reported for CNC[C@H](O)c1cccc(O)c1 please.
Given back: > 1000 µM

Asked: Look up Kd of O=C1OC(C(O)CO)C(=O)C1=O (centres unmarked) [Dehydro Asc, dehydroascorbic acid] and report it.
Given back: > 1000 µM

---

- System under test: histamine 1 receptor peptide H1HR 77–87 GAVVMPMNILYL (Homo sapiens, UniProt P35367)
- Construct: H1HR 77–87 GAVVMPMNILYL; purchased RS Synthesis (Louisville, KY, USA); host or cells: chemical synthesis
- Assay procedure: biochemical
- Assay type: binding
Recorded endpoint: Kd (µM)
Numbers only here, please. The scale is µM.

Asked: Give reported Kd value for CCC(=O)C(CC(C)N(C)C)(c1ccccc1)c1ccccc1 (stereo not shown) [Methadone, methadone]
Given back: 50

---

For each of the compounds below, state its Kd.
- System under test: beta 2 adrenergic receptor peptide B2AR 183–185 NCY (Homo sapiens, UniProt P07550)
- Construct: B2AR 183–185 NCY; purchased RS Synthesis (Louisville, KY, USA); host or cells: chemical synthesis
- Assay procedure: biochemical
- Format: binding
- Conditions used: UV spectrophotometry; read-out: Kd (µM) B2AR 183–185 NCY
Quick reminder: number only, in µM, skip the unit.

Asked: # return recorded Kd for entry N[C@@H](Cc1ccc(O)cc1)C(=O)O [Tyrosine, tyrosine]
Given back: 35

Asked: Give the measured Kd for N[C@@H](Cc1ccccc1)C(=O)O [Phenylalanine, phenylalanine]
Given back: 30

Asked: Please list Kd recorded for the compound O=C1OC(C(O)CO)C(=O)C1=O (centres unmarked) [Dehydro Asc, dehydroascorbic acid]
Given back: 500

---

- System under test: beta 2 adrenergic receptor peptide B2AR 97–103 KMWTFGN (Homo sapiens)
- Construct: B2AR 97–103 KMWTFGN; purchased RS Synthesis (Louisville, KY, USA); host or cells: chemical synthesis
- Assay procedure: biochemical
- Format: binding
- Conditions used: UV spectrophotometry; read-out: Kd (µM) B2AR 97–103 KMWTFGN
Assignment: determine reported Kd for the given compounds.

Asked: Supply recorded Kd for O=C1OC(C(O)CO)C(=O)C1=O (centres unmarked) [Dehydro Asc, dehydroascorbic acid] here.
Given back: 60 µM

Asked: Answer with the recorded Kd of NCC(=O)O [Glycine, glycine] only.
Given back: > 1000 µM

Asked: Report Kd for N[C@@H](Cc1ccccc1)C(=O)O [Phenylalanine, phenylalanine]
Given back: > 1000 µM

Asked: Name the recorded Kd of the item N[C@@H](Cc1ccc(O)cc1)C(=O)O [Tyrosine, tyrosine] in your answer.
Given back: > 1000 µM

Asked: Return Kd for the following compound: N[C@@H](CCC(=O)O)C(=O)O [Glutamate, glutamate]
Given back: > 1000 µM
